Property: IC50; scope: individual compounds
Biological target: UniProt:P29371
Sequence (P29371 whole entry): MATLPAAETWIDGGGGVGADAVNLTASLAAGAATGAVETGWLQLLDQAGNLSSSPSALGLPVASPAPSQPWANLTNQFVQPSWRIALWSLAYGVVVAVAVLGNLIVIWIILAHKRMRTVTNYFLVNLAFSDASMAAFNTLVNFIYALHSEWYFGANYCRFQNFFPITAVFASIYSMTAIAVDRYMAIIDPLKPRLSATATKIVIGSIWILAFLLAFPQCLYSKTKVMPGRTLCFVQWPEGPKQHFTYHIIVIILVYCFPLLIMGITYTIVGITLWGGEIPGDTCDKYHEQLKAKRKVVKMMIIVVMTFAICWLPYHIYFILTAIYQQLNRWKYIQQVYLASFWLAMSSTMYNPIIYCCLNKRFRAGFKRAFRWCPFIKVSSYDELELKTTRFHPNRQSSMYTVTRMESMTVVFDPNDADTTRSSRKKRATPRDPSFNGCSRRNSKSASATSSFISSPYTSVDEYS

Example entries and their recorded answers appear below.
[[record]]
sample_smiles = "CC(=O)N[C@@H](Cc1ccc2ccccc2c1)C(=O)OCc1cc(C)cc(C)c1"
value_measured = "> 5 µM"

[[record]]
sample_smiles = "O=C(N[C@@H](Cc1c[nH]c2ccccc12)C(=O)OCc1ccc(C(F)(F)F)cc1)c1ccccc1"
value_measured = "> 5 µM"


Please examine the following record next.
Request: Entry O=C(N[C@@H](Cc1c[nH]c2ccccc12)C(=O)OCc1cccc(C(F)(F)F)c1)c1ccccc1 , system UniProt:P29371: what IC50 was measured?
Response: > 5 µM

###

For Substance-P receptor (Homo sapiens, UniProt P25103), measured log10(IC50) is reported for the entries below.
Hello, just confirming the data are log10 of IC50 with units of nM.

# count of solved cases: 3
[[record]]
compound = "O=C(N[C@@H](Cc1c[nH]c2ccccc12)C(=O)OCc1cc(C(F)(F)F)cc(C(F)(F)F)c1)c1ccccc1"
value_measured = 0.43

[[record]]
compound = "COc1cccc(COC(=O)[C@H](Cc2c[nH]c3ccccc23)NC(=O)c2ccccc2)c1"
value_measured = 2.88

[[record]]
compound = "CC(=O)N[C@@H](Cc1ccccc1)C(=O)OCc1cc(C)cc(C)c1"
value_measured = 2.64


Request: // map CNC(=O)N[C@@H](Cc1c[nH]c2ccccc12)C(=O)OCc1cc(C)cc(C)c1 to recorded log10(IC50) (system: Substance-P receptor (Homo sapiens, UniProt P25103))
Sequence (P25103 whole entry): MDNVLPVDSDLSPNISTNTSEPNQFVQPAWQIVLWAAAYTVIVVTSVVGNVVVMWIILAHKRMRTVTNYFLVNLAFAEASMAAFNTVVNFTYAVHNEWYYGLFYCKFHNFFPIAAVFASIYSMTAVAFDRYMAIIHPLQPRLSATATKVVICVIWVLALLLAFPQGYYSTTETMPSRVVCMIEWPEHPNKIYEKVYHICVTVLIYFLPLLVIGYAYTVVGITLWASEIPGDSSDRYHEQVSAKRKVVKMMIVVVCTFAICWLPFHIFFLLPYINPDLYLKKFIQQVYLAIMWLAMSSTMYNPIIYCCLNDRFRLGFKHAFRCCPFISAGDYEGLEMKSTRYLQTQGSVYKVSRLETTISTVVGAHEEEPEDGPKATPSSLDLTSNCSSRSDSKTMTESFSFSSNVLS
Response: 2.01

Request: State its log10(IC50) on Substance-P receptor (Homo sapiens, UniProt P25103): CC(=O)N[C@@H](Cc1n[nH]c2ccccc12)C(=O)OCc1cc(C(F)(F)F)cc(C(F)(F)F)c1 (racemic)
Response: 2.29

Request: What measured log10(IC50) is associated with CC(=O)N[C@@H](Cc1csc2ccccc12)C(=O)OCc1cc(C(F)(F)F)cc(C(F)(F)F)c1 (racemic) on Substance-P receptor (Homo sapiens, UniProt P25103)?
Response: 0.90

Request: Under Substance-P receptor (Homo sapiens, UniProt P25103): log10(IC50) value of CC(=O)N[C@@H](Cc1ccc2ccccc2c1)C(=O)OCc1cc(C)cc(C)c1 ?
Response: 2.14
